Provenance of the data: ChEMBL document CHEMBL2311506

biological target: Prostaglandin E synthase (Homo sapiens, UniProt O14684); experiment: Inhibition of human recombinant mPGES-1 using PGH2 as substrate incubated 20 mins prior to substrate addition measured after 30 secs by EIA
Sequence (O14684 whole entry): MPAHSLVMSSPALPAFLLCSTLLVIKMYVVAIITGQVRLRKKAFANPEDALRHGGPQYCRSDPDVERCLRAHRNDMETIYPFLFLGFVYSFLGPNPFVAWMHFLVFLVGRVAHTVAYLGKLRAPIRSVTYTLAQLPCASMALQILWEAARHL
PROPERTY_MEASURED: IC50 (nM)

Consider the following illustrative entries.
O=C(NC1CCC1)C1CCN(c2nc3cc(Cl)ccc3o2)CC1 : 3010
O=C(N[C@@H]1CCC[C@H]1OCC1CCCC1)C1CCN(c2nc3cc(Cl)ccc3o2)CC1 : 176
CC1CCCC1NC(=O)C1CCN(c2nc3cc(Cl)ccc3o2)CC1 (stereo not given) : 242

[A] CCCCO[C@@H]1CCC[C@H]1NC(=O)C1CCN(c2nc3cc(Cl)ccc3o2)CC1
[B] O=C(N[C@H]1CCC[C@@H]1COc1ccccc1)C1CCN(c2nc3cc(Cl)ccc3o2)CC1
[C] O=C(NC1CCCC1c1ccccc1)C1CCN(c2nc3cc(Cl)ccc3o2)CC1 (stereo not given)
[D] CSCCNC(=O)C1CCN(c2nc3cc(Cl)ccc3o2)CC1
[E] CO[C@@H]1CCC[C@H]1NC(=O)C1CCN(c2nc3cc(Cl)ccc3o2)CC1
Qu. Rank order required: IC50, descending. Give the order by naming the labels one after another as requested.
Ans. E, D, A, C, B
